Reference source for all entries: patent US20210087281A1

# assayed system: T1, mouse MET-Fc (R&D Systems) (mouse, UniProt P16056 25-929, limits assumed)
# T1 construct: bought chimeric protein; also called mMET; not shown: Fc part
# T1 sequence (P16056 25-929 limits assumed): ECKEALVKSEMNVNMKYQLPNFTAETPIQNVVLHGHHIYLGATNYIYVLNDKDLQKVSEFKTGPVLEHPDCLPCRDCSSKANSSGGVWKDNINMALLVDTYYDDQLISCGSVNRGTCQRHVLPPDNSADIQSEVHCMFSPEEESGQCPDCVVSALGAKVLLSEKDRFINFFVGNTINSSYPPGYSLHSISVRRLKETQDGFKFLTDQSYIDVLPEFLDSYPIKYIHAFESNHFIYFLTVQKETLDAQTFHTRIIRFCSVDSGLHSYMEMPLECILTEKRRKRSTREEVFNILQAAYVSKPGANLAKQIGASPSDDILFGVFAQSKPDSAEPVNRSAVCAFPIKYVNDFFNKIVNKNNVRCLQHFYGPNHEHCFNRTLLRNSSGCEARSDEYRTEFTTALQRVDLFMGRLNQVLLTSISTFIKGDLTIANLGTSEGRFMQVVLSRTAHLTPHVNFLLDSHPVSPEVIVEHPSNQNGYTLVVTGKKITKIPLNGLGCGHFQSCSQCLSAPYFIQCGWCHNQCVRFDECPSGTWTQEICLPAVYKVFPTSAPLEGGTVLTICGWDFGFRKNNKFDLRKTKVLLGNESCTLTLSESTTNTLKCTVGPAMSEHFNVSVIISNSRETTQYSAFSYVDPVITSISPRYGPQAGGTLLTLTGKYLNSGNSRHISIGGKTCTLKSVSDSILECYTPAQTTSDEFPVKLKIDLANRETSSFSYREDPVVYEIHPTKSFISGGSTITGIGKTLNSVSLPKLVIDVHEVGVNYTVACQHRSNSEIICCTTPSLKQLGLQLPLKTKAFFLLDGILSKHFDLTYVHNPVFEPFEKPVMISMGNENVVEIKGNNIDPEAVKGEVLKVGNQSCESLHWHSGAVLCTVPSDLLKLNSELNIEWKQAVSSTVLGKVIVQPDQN
# procedure text: competition ELISA, mMET-Fc in solid phase, competitor 0.3 nM biotinylated mHGF
quantity: IMAX (%)
Give your result in % as a bare value.

• 71C3 chimeric llama-human IgG1 mAb (antibody, V domains shown, llama VH on human IgG1 CH1-CH2-CH3, llama VL on human lambda CL) VH: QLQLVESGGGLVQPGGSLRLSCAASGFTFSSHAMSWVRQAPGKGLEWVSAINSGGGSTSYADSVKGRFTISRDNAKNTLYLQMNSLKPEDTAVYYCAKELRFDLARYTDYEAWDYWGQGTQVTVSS VL: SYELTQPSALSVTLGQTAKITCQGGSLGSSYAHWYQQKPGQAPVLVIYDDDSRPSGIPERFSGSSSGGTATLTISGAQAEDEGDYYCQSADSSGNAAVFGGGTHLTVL = 89.2
• 76H10 chimeric llama-human IgG1 mAb (antibody, V domains shown, llama VH on human IgG1 CH1-CH2-CH3, llama VL on human lambda CL) VH: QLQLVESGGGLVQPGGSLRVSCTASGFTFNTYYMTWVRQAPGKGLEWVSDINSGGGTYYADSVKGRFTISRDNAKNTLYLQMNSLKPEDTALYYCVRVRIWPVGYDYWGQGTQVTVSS VL: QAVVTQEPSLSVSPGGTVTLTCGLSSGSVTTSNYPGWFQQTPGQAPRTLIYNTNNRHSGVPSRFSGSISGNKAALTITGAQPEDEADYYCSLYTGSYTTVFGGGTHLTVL = 62.7
• 72F8 chimeric llama-human IgG1 mAb (antibody, V domains shown, llama VH on human IgG1 CH1-CH2-CH3, llama VL on human lambda CL) VH: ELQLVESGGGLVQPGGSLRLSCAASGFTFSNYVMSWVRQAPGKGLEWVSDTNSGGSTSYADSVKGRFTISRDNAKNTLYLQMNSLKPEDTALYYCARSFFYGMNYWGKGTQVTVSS VL: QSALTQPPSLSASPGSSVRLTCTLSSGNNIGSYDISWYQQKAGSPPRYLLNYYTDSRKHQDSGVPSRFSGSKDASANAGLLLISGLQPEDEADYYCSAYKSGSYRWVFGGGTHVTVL = 72.8
• 76G7 chimeric llama-human IgG1 mAb (antibody, V domains shown, llama VH on human IgG1 CH1-CH2-CH3, llama VL on human lambda CL) VH: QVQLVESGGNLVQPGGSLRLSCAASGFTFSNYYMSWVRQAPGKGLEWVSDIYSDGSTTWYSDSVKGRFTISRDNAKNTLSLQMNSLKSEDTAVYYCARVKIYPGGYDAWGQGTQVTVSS VL: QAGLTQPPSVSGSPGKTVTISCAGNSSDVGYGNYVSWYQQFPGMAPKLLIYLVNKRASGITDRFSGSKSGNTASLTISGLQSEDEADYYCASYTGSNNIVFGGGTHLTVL = 62.5

// below: IMAX requested for another binder
Q) Give the measured IMAX of 71G12 chimeric llama-human IgG1 mAb (antibody, V domains shown, llama VH on human IgG1 CH1-CH2-CH3, llama VL on human kappa CL) VH: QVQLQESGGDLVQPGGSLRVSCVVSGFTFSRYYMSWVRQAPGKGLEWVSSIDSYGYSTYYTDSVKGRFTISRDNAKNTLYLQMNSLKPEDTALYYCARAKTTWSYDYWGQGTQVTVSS VL: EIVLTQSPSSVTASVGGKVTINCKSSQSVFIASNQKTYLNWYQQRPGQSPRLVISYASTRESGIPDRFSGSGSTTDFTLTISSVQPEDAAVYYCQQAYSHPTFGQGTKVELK .
A) 50.7
